# System: platelet rich plasma
# Experiment Summary: CD9-antibody induced platelet aggregation of platelet rich plasma
# Assay type: cell-based
# Reported Conditions: read-out: Platelet aggregation v. CD9 antibody Example 10 IC50/
Assay Readout: pIC50
// pIC50 here means minus log10 of the molar concentration (mol/L)

Looking up Cc1cc(C(C)Nc2ccccc2)c2oc(-c3ccncc3)cc(=O)c2c1 (stereo not shown) , I see its pIC50 listed as 7.00

---

# Study System: PKC Non-selective
# Experiment Summary: Ser/Thr kinase assay by MDS Pharma Services (Panlabs)
# Assay type: biochemical
Assay Readout: IC50

Field IC50 (entry Cc1cc(C(C)Nc2ccccc2)c2nc(N3CCOCC3)cc(=O)n2c1 (racemic) [TGX-221] ) reads > 10 µM

---

# Study System: P110 δ (Homo sapiens)
# Construct: The δ isoform was immunoprecipitated from THP-1 cells; endogenous in cells
# Sequence (O00329 whole entry, canonical isoform): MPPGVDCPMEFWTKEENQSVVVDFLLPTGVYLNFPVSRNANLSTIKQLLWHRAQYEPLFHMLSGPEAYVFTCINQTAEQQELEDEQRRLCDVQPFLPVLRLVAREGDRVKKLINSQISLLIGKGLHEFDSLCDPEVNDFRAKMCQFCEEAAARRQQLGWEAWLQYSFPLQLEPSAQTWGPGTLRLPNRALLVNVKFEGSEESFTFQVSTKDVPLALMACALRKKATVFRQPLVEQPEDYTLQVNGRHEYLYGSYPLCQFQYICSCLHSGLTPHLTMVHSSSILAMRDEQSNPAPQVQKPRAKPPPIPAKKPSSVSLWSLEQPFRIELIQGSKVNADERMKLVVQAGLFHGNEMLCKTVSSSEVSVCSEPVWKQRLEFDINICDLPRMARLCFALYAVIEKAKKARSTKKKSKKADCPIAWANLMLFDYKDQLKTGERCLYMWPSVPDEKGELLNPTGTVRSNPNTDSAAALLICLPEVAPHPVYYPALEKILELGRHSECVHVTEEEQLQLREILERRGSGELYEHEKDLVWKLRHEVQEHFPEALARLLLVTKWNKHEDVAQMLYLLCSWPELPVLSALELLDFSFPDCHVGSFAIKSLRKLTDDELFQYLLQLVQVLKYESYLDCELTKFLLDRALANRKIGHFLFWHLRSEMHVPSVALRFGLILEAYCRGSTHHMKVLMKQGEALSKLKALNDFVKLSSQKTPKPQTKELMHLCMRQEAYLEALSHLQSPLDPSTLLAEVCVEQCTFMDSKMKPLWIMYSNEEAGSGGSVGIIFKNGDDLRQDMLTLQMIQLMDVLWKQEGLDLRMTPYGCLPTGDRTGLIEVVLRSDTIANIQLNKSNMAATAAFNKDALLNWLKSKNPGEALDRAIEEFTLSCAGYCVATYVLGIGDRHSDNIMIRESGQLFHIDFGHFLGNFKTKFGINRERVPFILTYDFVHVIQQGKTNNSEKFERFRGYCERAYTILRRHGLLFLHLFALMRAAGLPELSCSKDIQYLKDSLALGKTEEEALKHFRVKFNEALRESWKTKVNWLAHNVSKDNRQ
# Sequence (P27986 whole entry partner, canonical isoform): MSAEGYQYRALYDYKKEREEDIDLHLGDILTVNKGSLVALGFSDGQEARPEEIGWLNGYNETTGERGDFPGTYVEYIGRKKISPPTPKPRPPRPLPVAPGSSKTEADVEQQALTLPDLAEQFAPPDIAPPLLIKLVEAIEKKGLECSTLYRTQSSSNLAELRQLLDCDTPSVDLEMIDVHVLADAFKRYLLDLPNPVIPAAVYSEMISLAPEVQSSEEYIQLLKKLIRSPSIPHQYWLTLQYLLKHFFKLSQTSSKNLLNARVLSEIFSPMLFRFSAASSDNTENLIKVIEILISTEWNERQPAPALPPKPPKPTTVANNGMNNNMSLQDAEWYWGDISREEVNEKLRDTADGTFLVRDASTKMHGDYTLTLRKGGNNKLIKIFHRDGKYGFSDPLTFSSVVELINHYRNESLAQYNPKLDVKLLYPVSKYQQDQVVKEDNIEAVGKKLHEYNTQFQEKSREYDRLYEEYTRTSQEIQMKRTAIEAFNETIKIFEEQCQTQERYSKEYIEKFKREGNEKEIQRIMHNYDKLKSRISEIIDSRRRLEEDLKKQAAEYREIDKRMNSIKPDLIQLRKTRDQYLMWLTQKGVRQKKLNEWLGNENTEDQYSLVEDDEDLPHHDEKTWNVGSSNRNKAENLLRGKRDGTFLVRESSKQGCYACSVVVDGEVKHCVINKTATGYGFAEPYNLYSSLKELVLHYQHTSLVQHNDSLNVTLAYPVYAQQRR
# Experiment Summary: Isoform selective in vitro PI3K enzyme assay (Example 13), δ from THP-1 cells
# Reported Conditions: read-out: P110 δ IC50s
pIC50: −log10 of the molar value.
Measured pIC50 by item

>>> result("Cc1cc(C(C)Nc2ccccc2)c2oc(-c3cc(C)nc(Cl)c3)cc(=O)c2c1 (stereo not shown)")
"< 5.00"
>>> result("Cc1cccn2c(=O)cc(-c3ccncc3)nc12")
"< 5.00"
>>> result("Cc1cc(-c2ccccc2)c2oc(-c3ccncc3)cc(=O)c2c1")
"< 5.00"

Briefly, pIC50 measured for O=c1cc(-c2ccncc2)oc2cc(OCc3ccccc3)ccc12 : < 5.00

---

# Study System: p110β-PI3K (Homo sapiens, UniProt P42338)
# Construct: The α and β isoforms of the PI3K were immunoprecipitated from a platelet lysate; from tissue; host or cells: washed platelets (lysate, immunoprecipitated with anti-p110β antibody)
# Sequence (P42338 whole entry, one chain of several, canonical isoform): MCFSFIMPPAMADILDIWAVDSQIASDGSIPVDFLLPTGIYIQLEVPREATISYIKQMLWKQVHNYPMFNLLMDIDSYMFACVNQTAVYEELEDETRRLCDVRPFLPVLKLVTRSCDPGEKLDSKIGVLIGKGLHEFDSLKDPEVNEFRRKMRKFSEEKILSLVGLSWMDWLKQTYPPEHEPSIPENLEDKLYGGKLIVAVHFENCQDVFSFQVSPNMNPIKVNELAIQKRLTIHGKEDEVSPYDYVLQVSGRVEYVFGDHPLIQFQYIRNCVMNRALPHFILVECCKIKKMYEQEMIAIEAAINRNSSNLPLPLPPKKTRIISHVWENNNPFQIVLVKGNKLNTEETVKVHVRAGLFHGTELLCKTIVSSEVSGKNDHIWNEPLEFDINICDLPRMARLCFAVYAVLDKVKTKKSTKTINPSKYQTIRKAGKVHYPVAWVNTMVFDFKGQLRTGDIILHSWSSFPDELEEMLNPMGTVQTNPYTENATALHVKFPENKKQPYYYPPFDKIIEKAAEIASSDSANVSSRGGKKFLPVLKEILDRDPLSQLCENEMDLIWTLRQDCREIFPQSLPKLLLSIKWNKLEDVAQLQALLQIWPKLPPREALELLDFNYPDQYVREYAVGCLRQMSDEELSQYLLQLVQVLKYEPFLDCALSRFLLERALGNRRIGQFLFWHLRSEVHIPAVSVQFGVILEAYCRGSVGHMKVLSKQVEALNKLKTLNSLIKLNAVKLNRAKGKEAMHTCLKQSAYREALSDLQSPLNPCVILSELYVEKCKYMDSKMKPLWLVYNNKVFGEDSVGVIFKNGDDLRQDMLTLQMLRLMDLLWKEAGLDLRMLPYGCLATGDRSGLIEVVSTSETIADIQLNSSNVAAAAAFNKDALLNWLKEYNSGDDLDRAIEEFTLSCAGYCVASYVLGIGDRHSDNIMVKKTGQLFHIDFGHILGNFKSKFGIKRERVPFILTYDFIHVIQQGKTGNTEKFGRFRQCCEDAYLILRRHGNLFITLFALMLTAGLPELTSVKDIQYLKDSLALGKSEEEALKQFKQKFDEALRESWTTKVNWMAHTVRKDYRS
# Experiment Summary: In vitro enzyme assay, p110β immunoprecipitated from platelet lysate (Biological Example 1)
# Assay type: biochemical
# Reported Conditions: Table I
Assay Readout: Ratio δ/β
Please reply with the value in numeric form only.

Answered examples (2):
>>> numeric_readout("Cc1cc(CN(C)c2ccccc2)c2nc(N3CCOCC3)cc(=O)n2c1 (racemic)")
25.00
>>> numeric_readout("Cc1cc(C(C)Nc2ccc(Cl)cc2)c2nc(N3CCOCC3)cc(=O)n2c1 (racemic)")
40.00

Result for Cc1cc(C(C)Nc2ccc(Cl)c(Cl)c2)c2nc(N3CCOCC3)cc(=O)n2c1 (racemic) , tested on p110β-PI3K (Homo sapiens, UniProt P42338), Ratio δ/β: 20.00

---

# System: PI 3-kinase immunoprecipitated from human platelets (p85/110 form)
# Experiment Summary: In vitro PI 3-kinase assay (Example 8), Platelet IP (p85)
# Type: biochemical
# Reported Conditions: read-out: Platelet IP (p85) IC50s
pIC50: −log10 of the molar value.
Assay Readout: pIC50

See these solved cases before continuing.
>>> result("Cc1cc(C(C)Oc2ccccc2)c2oc(-c3ccncc3)cc(=O)c2c1 (stereo not drawn)")
"< 7.00"
>>> result("Cc1cccn2c(=O)cc(-c3ccncc3)nc12")
"< 5.00"

Turning now to a further molecule:
Result for Cc1cc(CNc2ccccn2)c2oc(-c3ccncc3)cc(=O)c2c1 , tested on PI 3-kinase immunoprecipitated from human platelets (p85/110 form), pIC50: < 7.00
